B1: glmS ribozyme (parent)
chain: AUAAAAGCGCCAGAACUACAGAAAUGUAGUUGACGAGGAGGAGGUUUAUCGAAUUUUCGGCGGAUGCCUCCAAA

- Variants of: B1
- experiment: self-cleavage kobs at 40 uM GlcN6P; higher = faster cleavage; RNA array
- assay setup: with glucosamine-6-phosphate
This sample holds only a part of the variants without activity.
recorded endpoint: self-cleavage kobs at 40 uM GlcN6P

INSERT INTO measurements (variant_description, result) VALUES
  ('U56A C70A', '3.68e-05 s⁻¹'),
  ('G7A A33C U57C G63A', '< 1e-05 s⁻¹'),
  ('U47G C68G', '5.34e-05 s⁻¹'),
  ('A39U G66U', '0.000107 s⁻¹'),
  ('A48G C50G C61G', '0.000172 s⁻¹'),
  ('C11U A33U C61G', '< 1e-05 s⁻¹'),
  ('G9A A42C', '< 1e-05 s⁻¹'),
  ('C16U C67A', '0.000212 s⁻¹'),
  ('G35A A48U C71U', '< 1e-05 s⁻¹'),
  ('G63U C68G', '< 1e-05 s⁻¹'),
  ('U56A G66A', '0.000167 s⁻¹'),
  ('G7C U55G', '< 1e-05 s⁻¹'),
  ('G59C C61G', '< 1e-05 s⁻¹'),
  ('G32A C71U', '3.68e-05 s⁻¹'),
  ('G7U A52U', '< 1e-05 s⁻¹'),
  ('U31C C71A', '3.6e-05 s⁻¹'),
  ('A12C U31A G32C C34A U47A C71U', '< 1e-05 s⁻¹'),
  ('C10U C11U', '< 1e-05 s⁻¹'),
  ('C10G G29A G37A G38U G41C C71U', '< 1e-05 s⁻¹'),
  ('A33C A42C', '< 1e-05 s⁻¹'),
  ('A64U G66A', '< 1e-05 s⁻¹'),
  ('G13U A48G U65C U69G', '< 1e-05 s⁻¹'),
  ('A6C A12U U30A A48C', '< 1e-05 s⁻¹'),
  ('C11U U31C U47C A52U', '< 1e-05 s⁻¹'),
  ('U30C U47C', '< 1e-05 s⁻¹'),
  ('U30A C50G U54A U69G', '5.79e-05 s⁻¹'),
  ('C16A A48U', '< 1e-05 s⁻¹'),
  ('A64C G66U C68G', '< 1e-05 s⁻¹'),
  ('U31A G62C', '< 1e-05 s⁻¹'),
  ('A15U U45A', '0.000298 s⁻¹'),
  ('G32C G66U', '< 1e-05 s⁻¹'),
  ('G60C C70G', '< 1e-05 s⁻¹'),
  ('A6U G37C G41C U47C A48U G59U', '< 1e-05 s⁻¹'),
  ('U30C A33G G66U C71G', '< 1e-05 s⁻¹'),
  ('G7A A53C', '< 1e-05 s⁻¹'),
  ('U31A U55G', '0.000331 s⁻¹'),
  ('G37U G41C C70U', '< 1e-05 s⁻¹'),
  ('A12G G44C C67G', '< 1e-05 s⁻¹'),
  ('A15U C34A A52U', '< 1e-05 s⁻¹'),
  ('G35A U45A C67U', '< 1e-05 s⁻¹'),
  ('G9A C10U A14U U31C G40C C70A', '< 1e-05 s⁻¹'),
  ('G9C U45C', '< 1e-05 s⁻¹'),
  ('G41A C70G', '4.43e-05 s⁻¹'),
  ('A14U C16U', '0.00025 s⁻¹'),
  ('C10A A42C', '< 1e-05 s⁻¹'),
  ('G40U C58A', '< 1e-05 s⁻¹'),
  ('G7A G13U', '< 1e-05 s⁻¹'),
  ('A14C U54G', '0.00011 s⁻¹'),
  ('G9C A33U A52C', '< 1e-05 s⁻¹'),
  ('C10U A12G G32U A36U C70U', '< 1e-05 s⁻¹'),
  ('C16G C34A G38C U65C', '< 1e-05 s⁻¹'),
  ('U65A C67A', '5.89e-05 s⁻¹'),
  ('C34G U65C', '< 1e-05 s⁻¹'),
  ('G40U C67U', '< 1e-05 s⁻¹'),
  ('G32A C61G U69C', '3.85e-05 s⁻¹'),
  ('G9A G13A', '< 1e-05 s⁻¹'),
  ('A14G A15U U30G', '0.00266 s⁻¹'),
  ('G9C C34A A42U G43A', '< 1e-05 s⁻¹'),
  ('C8G A15C', '< 1e-05 s⁻¹'),
  ('C10A C34G', '< 1e-05 s⁻¹'),
  ('C16U C67G', '1.87e-05 s⁻¹'),
  ('G37A G40C A48U G63A', '< 1e-05 s⁻¹'),
  ('A12C G35U U47C A48U', '< 1e-05 s⁻¹'),
  ('U56A A64C', '< 1e-05 s⁻¹'),
  ('A14U G43C U69A', '< 1e-05 s⁻¹'),
  ('G29A C61U G63A', '< 1e-05 s⁻¹'),
  ('G9C U45C U47A C67G', '< 1e-05 s⁻¹'),
  ('G29C C34U', '< 1e-05 s⁻¹'),
  ('C8U U65G', '< 1e-05 s⁻¹'),
  ('A12U U49C', '< 1e-05 s⁻¹'),
  ('C16A G29C', '0.000114 s⁻¹'),
  ('G51C U57C C70G', '< 1e-05 s⁻¹'),
  ('G13C C50G G63A C70G', '0.000201 s⁻¹'),
  ('A33C G44C U57A A64U', '< 1e-05 s⁻¹'),
  ('U31C A53G', '0.000158 s⁻¹'),
  ('A14G G51C', '< 1e-05 s⁻¹'),
  ('G62U G63U C68G', '< 1e-05 s⁻¹'),
  ('U46A A53G', '8.49e-05 s⁻¹'),
  ('C34A U56C', '< 1e-05 s⁻¹'),
  ('G41A C61U', '< 1e-05 s⁻¹'),
  ('G32A U54G G59A', '< 1e-05 s⁻¹'),
  ('G32U A36G G41C A52U C67A', '< 1e-05 s⁻¹'),
  ('G9C G40A C50A', '< 1e-05 s⁻¹'),
  ('U55G C61A G66C C70A', '0.000162 s⁻¹'),
  ('A12C G59A', '< 1e-05 s⁻¹'),
  ('A14C G29A C61G', '< 1e-05 s⁻¹');
